measuredTarget: P2X7 receptor (Homo sapiens, UniProt Q99572)
Construct: host or cells: THP-1 cells differentiated with LPS and IFN-γ
Sequence (Q99572 whole entry): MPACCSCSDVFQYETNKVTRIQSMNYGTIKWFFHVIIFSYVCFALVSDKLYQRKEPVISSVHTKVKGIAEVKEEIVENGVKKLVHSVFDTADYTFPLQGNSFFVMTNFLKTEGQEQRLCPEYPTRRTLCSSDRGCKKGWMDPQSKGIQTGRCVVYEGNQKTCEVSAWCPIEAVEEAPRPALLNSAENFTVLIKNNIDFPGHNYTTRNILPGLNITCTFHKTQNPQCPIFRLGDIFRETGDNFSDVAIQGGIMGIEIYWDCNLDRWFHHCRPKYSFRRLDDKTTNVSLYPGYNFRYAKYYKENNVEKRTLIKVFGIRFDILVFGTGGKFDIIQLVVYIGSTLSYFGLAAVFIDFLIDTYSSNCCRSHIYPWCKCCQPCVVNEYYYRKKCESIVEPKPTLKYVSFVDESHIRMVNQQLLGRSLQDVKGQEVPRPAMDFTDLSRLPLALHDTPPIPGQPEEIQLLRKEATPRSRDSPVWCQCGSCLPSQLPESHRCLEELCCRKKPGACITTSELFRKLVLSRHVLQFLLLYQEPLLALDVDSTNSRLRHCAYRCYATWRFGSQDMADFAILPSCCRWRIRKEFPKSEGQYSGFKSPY
assayText: Alternate method for IL-1β release assay (differentiated THP-1 cells, BzATP-stimulated, ELISA)
Assay type: cell-based
testSettings: P2X7; 0.3 μM compound (asterisk symbols); read-out: IL-1β % inhib @ 0.3 μM
reportedProperty: inhibition at 0.3 µM

Examples from the recorded data:
O=S(=O)(c1cccc(Oc2ccc(Cl)c(Cl)c2)c1)N1CCc2c(ncnc2NCC23CC4CC(CC(C4)C2)C3)C1 [Compound 34] | 0 to 25%
Cc1ccccc1S(=O)(=O)N1CCc2c(ncnc2NCC23CC4CC(CC(C4)C2)C3)C1 [Compound 56] | 25 to 50%

Problem: Give recorded inhibition at 0.3 µM with P2X7 receptor (Homo sapiens, UniProt Q99572) for the following compound: Cc1ccc(S(=O)(=O)N2CCc3c(ncnc3NCC34CC5CC(CC(C5)C3)C4)C2)cc1Cl [Compound 64]
Result: 25 to 50%

Problem: Give recorded inhibition at 0.3 µM with P2X7 receptor (Homo sapiens, UniProt Q99572) for the following compound: O=C(c1cc(F)ccc1F)N1CCc2c(ncnc2NCC23CC4CC(CC(C4)C2)C3)C1 [Compound 134]
Result: > 75%

Problem: Give recorded inhibition at 0.3 µM with P2X7 receptor (Homo sapiens, UniProt Q99572) for the following compound: O=C(c1cc(F)cc(C(F)(F)F)c1)N1CCc2c(ncnc2NCC23CC4CC(CC(C4)C2)C3)C1 [Compound 122]
Result: 0 to 25%

Problem: Give recorded inhibition at 0.3 µM with P2X7 receptor (Homo sapiens, UniProt Q99572) for the following compound: O=C(c1cccc(Cl)c1Cl)N1CCc2c(ncnc2NCC23CC4CC(CC(C4)C2)C3)C1 [Compound 137]
Result: > 75%

Problem: Give recorded inhibition at 0.3 µM with P2X7 receptor (Homo sapiens, UniProt Q99572) for the following compound: Cc1ccc(S(=O)(=O)N2CCc3c(ncnc3NCC34CC5CC(CC(C5)C3)C4)C2)cc1 [Compound 5]
Result: 50 to 75%

Problem: Give recorded inhibition at 0.3 µM with P2X7 receptor (Homo sapiens, UniProt Q99572) for the following compound: CCCCN1CCc2c(ncnc2NCC23CC4CC(CC(C4)C2)C3)C1 [Compound 189]
Result: 0 to 25%

Problem: Give recorded inhibition at 0.3 µM with P2X7 receptor (Homo sapiens, UniProt Q99572) for the following compound: N#Cc1ccc(S(=O)(=O)N2CCc3c(ncnc3NCC34CC5CC(CC(C5)C3)C4)C2)cc1 [Compound 25]
Result: 25 to 50%

Problem: Give recorded inhibition at 0.3 µM with P2X7 receptor (Homo sapiens, UniProt Q99572) for the following compound: O=S(=O)(Cc1ccc(C(F)(F)F)cc1)N1CCc2c(ncnc2NCC23CC4CC(CC(C4)C2)C3)C1 [Compound 39]
Result: 0 to 25%
